Non-standard residues stand in square brackets, D forms with d. Residues, ends and D or L forms follow the SMILES beside them. *: point of attachment. dPhe(4-Cl) = N[C@H](Cc1ccc(Cl)cc1)C(=O)O; d2Nal = N[C@H](Cc1ccc2ccccc2c1)C(=O)O; Ahp = NCCCCCCC(=O)O; Bn = c1ccc(C*)cc1
Below are Ki values measured for UniProt P32245.
Reply numerically in nM, unit not repeated.

N=C(N)NCCCC(NC(=O)C(Cc1ccc(Cl)cc1)NC(=O)C(COCc1ccccc1)NC(=O)CCCCCCN)C(=O)NC(Cc1c[nH]c2ccccc12)C(N)=O (stereo not shown); 1
N=C(N)NCCC[C@H](NC(=O)[C@@H](Cc1ccc2ccccc2c1)NC(=O)[C@H](COCc1ccccc1)NC(=O)CCCCCCN)C(=O)N[C@@H](Cc1c[nH]c2ccccc12)C(N)=O (H-[Ahp]S(Bn)[d2Nal]RW-NH2); 4
N=C(N)NCCC[C@H](NC(=O)[C@@H](Cc1ccc(Cl)cc1)NC(=O)[C@H](COCc1ccccc1)NC(=O)CCCCCCN)C(=O)N[C@@H](Cc1c[nH]c2ccccc12)C(=O)N[C@@H](CC(=O)O)C(N)=O (H-[Ahp]S(Bn)[dPhe(4-Cl)]RWD-NH2); 9

Attention now shifts to the item below.
Using UniProt P32245 as the test system, report measured Ki of N=C(N)NCCC[C@H](NC(=O)[C@@H](Cc1ccc(Cl)cc1)NC(=O)[C@H](COCc1ccccc1)NC(=O)CCCCCCN)C(=O)N[C@@H](Cc1c[nH]c2ccccc12)C(=O)N[C@@H](CC(=O)O)C(=O)N[C@@H](Cc1ccccc1)C(N)=O (H-[Ahp]S(Bn)[dPhe(4-Cl)]RWDF-NH2) .
12

###

Values of Ki reported for UniProt P41968 appear below.
Non-standard residues stand in square brackets, D forms with d. Residues, ends and D or L forms follow the SMILES beside them. *: point of attachment. dPhe(4-Cl) = N[C@H](Cc1ccc(Cl)cc1)C(=O)O; d2Nal = N[C@H](Cc1ccc2ccccc2c1)C(=O)O; Ahp = NCCCCCCC(=O)O; Bn = c1ccc(C*)cc1
Give just the number in µM; leave the unit off.

Worked cases, Ki given:
N=C(N)NCCC[C@H](NC(=O)[C@@H](Cc1ccc2ccccc2c1)NC(=O)[C@H](COCc1ccccc1)NC(=O)CCCCCCN)C(=O)N[C@H](Cc1c[nH]c2ccccc12)C(N)=O (H-[Ahp]S(Bn)[d2Nal]R[dW]-NH2); 0.07
N=C(N)NCCC[C@H](NC(=O)[C@@H](Cc1ccc2ccccc2c1)NC(=O)[C@H](COCc1ccccc1)NC(=O)CCCCCCN)C(=O)N[C@@H](Cc1c[nH]c2ccccc12)C(N)=O (H-[Ahp]S(Bn)[d2Nal]RW-NH2); 0.05
N=C(N)NCCC[C@H](NC(=O)[C@@H](Cc1ccc(Cl)cc1)NC(=O)[C@H](COCc1ccccc1)NC(=O)CCCCCCN)C(=O)N[C@@H](Cc1c[nH]c2ccccc12)C(=O)N[C@@H](CC(=O)O)C(N)=O (H-[Ahp]S(Bn)[dPhe(4-Cl)]RWD-NH2); 0.191

State Ki (UniProt P41968) of C[C@H](NC(=O)[C@H](Cc1c[nH]c2ccccc12)NC(=O)[C@H](CCCNC(=N)N)NC(=O)[C@@H](Cc1ccc(Cl)cc1)NC(=O)[C@H](COCc1ccccc1)NC(=O)CCCCCCN)C(N)=O (H-[Ahp]S(Bn)[dPhe(4-Cl)]RWA-NH2) .
0.037

Identify measured Ki obtained with UniProt P41968 for N=C(N)NCCC[C@H](NC(=O)[C@@H](Cc1ccc(Cl)cc1)NC(=O)[C@H](COCc1ccccc1)NC(=O)CCCCCCN)C(=O)N[C@@H](Cc1c[nH]c2ccccc12)C(=O)N[C@@H](CC(=O)O)C(=O)N[C@@H](Cc1ccccc1)C(N)=O (H-[Ahp]S(Bn)[dPhe(4-Cl)]RWDF-NH2) .
0.318

###

assayed_target: hMC3-R (Homo sapiens, UniProt P41968)
Construct: expressed in transfected cells
Sequence (P41968 whole entry): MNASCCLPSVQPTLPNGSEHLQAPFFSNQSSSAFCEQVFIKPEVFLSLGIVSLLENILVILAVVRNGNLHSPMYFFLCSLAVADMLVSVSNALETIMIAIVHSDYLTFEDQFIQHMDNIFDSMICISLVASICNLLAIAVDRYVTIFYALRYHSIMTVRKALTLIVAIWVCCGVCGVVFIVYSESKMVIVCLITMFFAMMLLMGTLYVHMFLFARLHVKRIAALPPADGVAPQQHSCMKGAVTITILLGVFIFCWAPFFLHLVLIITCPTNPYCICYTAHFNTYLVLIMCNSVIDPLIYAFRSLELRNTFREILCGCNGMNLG
test_description: Competitive inhibition binding assay, 125I-NDP-alpha-MSH, hMC3-R membranes
measurement_conditions: hMC3-R membranes; 0.4 nM 125I-NDP-alpha-MSH; mean of triplicate; peptide concentration not given
Non-standard residues stand in square brackets, D forms with d. Residues, ends and D or L forms follow the SMILES beside them. *: point of attachment. dPhe(4-Cl) = N[C@H](Cc1ccc(Cl)cc1)C(=O)O; d2Nal = N[C@H](Cc1ccc2ccccc2c1)C(=O)O; Ahp = NCCCCCCC(=O)O; Bn = c1ccc(C*)cc1
# percent inhibition of 125I-NDP-alpha-MSH binding, MC3-R per record follows
Answer with the value and then the unit.

Some molecules with recorded percent inhibition of 125I-NDP-alpha-MSH binding, MC3-R:
N=C(N)NCCC[C@H](NC(=O)[C@@H](Cc1ccc2ccccc2c1)NC(=O)[C@H](COCc1ccccc1)NC(=O)CCCCCCN)C(=O)N[C@H](Cc1c[nH]c2ccccc12)C(N)=O (H-[Ahp]S(Bn)[d2Nal]R[dW]-NH2); 86%
N=C(N)NCCC[C@H](NC(=O)[C@@H](Cc1ccc2ccccc2c1)NC(=O)[C@H](COCc1ccccc1)NC(=O)CCCCCCN)C(=O)N[C@@H](Cc1c[nH]c2ccccc12)C(N)=O (H-[Ahp]S(Bn)[d2Nal]RW-NH2); 93%
N=C(N)NCCC[C@H](NC(=O)[C@@H](Cc1ccc(Cl)cc1)NC(=O)[C@H](COCc1ccccc1)NC(=O)CCCCCCN)C(=O)N[C@@H](Cc1c[nH]c2ccccc12)C(=O)N[C@@H](CC(=O)O)C(N)=O (H-[Ahp]S(Bn)[dPhe(4-Cl)]RWD-NH2); 73%
N=C(N)NCCC[C@H](NC(=O)[C@@H](Cc1ccc(Cl)cc1)NC(=O)[C@H](COCc1ccccc1)NC(=O)CCCCCCN)C(=O)N[C@@H](Cc1c[nH]c2ccccc12)C(=O)N[C@@H](CC(=O)O)C(=O)N[C@@H](Cc1ccccc1)C(N)=O (H-[Ahp]S(Bn)[dPhe(4-Cl)]RWDF-NH2); 37%
N=C(N)NCCCC(NC(=O)C(Cc1ccc(Cl)cc1)NC(=O)C(COCc1ccccc1)NC(=O)CCCCCCN)C(=O)NC(Cc1c[nH]c2ccccc12)C(N)=O (stereo not drawn); 94%

Attention now shifts to the item below.
Identify percent inhibition of 125I-NDP-alpha-MSH binding, MC3-R associated with the molecule C[C@H](NC(=O)[C@H](Cc1c[nH]c2ccccc12)NC(=O)[C@H](CCCNC(=N)N)NC(=O)[C@@H](Cc1ccc(Cl)cc1)NC(=O)[C@H](COCc1ccccc1)NC(=O)CCCCCCN)C(N)=O (H-[Ahp]S(Bn)[dPhe(4-Cl)]RWA-NH2)
93%

###

Please consider the recorded pKi for MC4-R (Homo sapiens, UniProt P32245) in what follows.
Non-standard residues stand in square brackets, D forms with d. Residues, ends and D or L forms follow the SMILES beside them. *: point of attachment. dPhe(4-Cl) = N[C@H](Cc1ccc(Cl)cc1)C(=O)O; d2Nal = N[C@H](Cc1ccc2ccccc2c1)C(=O)O; Ahp = NCCCCCCC(=O)O; Bn = c1ccc(C*)cc1
Scale for pKi: -log10 of concentration given in mol/L; no unit attached.

N=C(N)NCCC[C@H](NC(=O)[C@@H](Cc1ccc2ccccc2c1)NC(=O)[C@H](COCc1ccccc1)NC(=O)CCCCCCN)C(=O)N[C@H](Cc1c[nH]c2ccccc12)C(N)=O (H-[Ahp]S(Bn)[d2Nal]R[dW]-NH2); 8.22

Next, consider the following compound.
Report pKi from MC4-R (Homo sapiens, UniProt P32245) testing of C[C@H](NC(=O)[C@H](Cc1c[nH]c2ccccc12)NC(=O)[C@H](CCCNC(=N)N)NC(=O)[C@@H](Cc1ccc(Cl)cc1)NC(=O)[C@H](COCc1ccccc1)NC(=O)CCCCCCN)C(N)=O (H-[Ahp]S(Bn)[dPhe(4-Cl)]RWA-NH2)
8.70
